Every entry's value here was drawn from PubChem BioAssay AID504652.

- Tested On: D(1A) dopamine receptor (Homo sapiens) (UniProt P21728)
- Sequence (P21728 whole entry, looked up): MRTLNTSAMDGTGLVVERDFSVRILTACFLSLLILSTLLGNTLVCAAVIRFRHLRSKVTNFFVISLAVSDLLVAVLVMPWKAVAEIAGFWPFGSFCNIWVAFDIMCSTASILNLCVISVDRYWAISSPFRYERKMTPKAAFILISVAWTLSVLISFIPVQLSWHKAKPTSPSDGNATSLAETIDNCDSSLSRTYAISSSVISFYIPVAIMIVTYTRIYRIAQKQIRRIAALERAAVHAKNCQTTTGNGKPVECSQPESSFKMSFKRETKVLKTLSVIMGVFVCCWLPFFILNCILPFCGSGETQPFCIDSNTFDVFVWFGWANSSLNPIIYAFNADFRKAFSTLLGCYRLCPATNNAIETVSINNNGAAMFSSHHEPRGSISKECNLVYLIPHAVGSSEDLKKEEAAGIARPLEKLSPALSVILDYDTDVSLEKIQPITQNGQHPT
- Experiment Summary: Antagonist of Human D 1 Dopamine Receptor: qHTS; note: % is set by controls: 0 for no effect and ±100 for the full control effect
- Setup Conditions: HEK293 TREx D1 cells, calcium flux, dopamine EC80; at 10 µM
About 11,000 (3.1%) of roughly 360,000 compounds were called active. Cut-off read from the data, not from the text of the source: active = activity change below about -30%; inactive = the rest. This is one part of a sample in which actives are shown more often than they occur.
Write down the outcome that applies. Available outcomes: active, inactive

CC(NC(=S)Nc1ccccc1)C1COc2ccccc2O1 (stereo not given) | inactive

Request: Tell me the recorded outcome of this test for CCc1ccc(CNC(=O)c2ccc(CS(=O)c3ccc(Br)cc3)o2)cc1 (stereo not given) .
Result: inactive

Request: Tell me the recorded outcome of this test for Cc1ccc2[nH]cc(CCNC(=O)C3CCCCC3)c2c1 .
Result: inactive

Request: Tell me the recorded outcome of this test for CCN(Cc1ccccc1)S(=O)(=O)c1ccc2c(c1)CCCN2C(C)=O .
Result: inactive

Request: Tell me the recorded outcome of this test for COc1ccc(N(CC(=O)NC2CCCCC2)S(=O)(=O)c2c(C)[nH]c(=O)[nH]c2=O)cc1 .
Result: active

Request: Tell me the recorded outcome of this test for CC(C)Cn1c(-c2ccc(S(=O)(=O)N3CCOCC3)cc2)csc1=Nc1cc(Cl)ccc1Cl .
Result: inactive

Request: Tell me the recorded outcome of this test for CCN(Cc1ccccc1)S(=O)(=O)c1cc(C(=O)O)ccc1OC .
Result: inactive

Request: Tell me the recorded outcome of this test for CN1CC(c2ccccc2)C2(COc3ccccc3C2=O)C12C(=O)Nc1ccccc12 (stereo not given) .
Result: active

Request: Tell me the recorded outcome of this test for COc1ccc(N(CC(=O)NC2CCCCCCC2)S(=O)(=O)c2c(C)nn(C)c2C)cc1 .
Result: inactive

Request: Tell me the recorded outcome of this test for CCc1ccccc1NC(=O)c1cnn(-c2ccc(F)cc2)c1C1CCNCC1 .
Result: inactive

---

- Tested On: D(1A) dopamine receptor (Homo sapiens)
- Experiment Summary: Antagonist of Human D 1 Dopamine Receptor: qHTS; note: % is set by controls: 0 for no effect and ±100 for the full control effect
- Setup Conditions: HEK293 TREx D1 cells, calcium flux, dopamine EC80; at 10 µM
Screen size: about 360,000 compounds; about 11,000 (3.1%) were called active. No stated cut-off is given here; in the data, active means activity change below about -30%; inactive means the rest. The list comes from a sample in which actives are over-represented; it also holds close analogues and randomly drawn compounds.
Write down the outcome that applies. Available outcomes: yes = active, no = inactive

CCOc1ccc(CNC(=O)c2ccc(CS(=O)c3ccccc3)o2)cc1 (centres undefined) | no
COc1cc(NS(=O)(=O)c2ccc(NC(=O)c3ccc(S(=O)(=O)N4CCCCC4)cc3)cc2)ncn1 | yes

Request: Tell me the recorded outcome of this test for CCOc1ccc(N2CC(C)Cn3c2nc2c3c(=O)n(Cc3c(F)cccc3Cl)c(=O)n2C)cc1 (centres undefined) .
Result: no

Request: Tell me the recorded outcome of this test for Cc1ccc2c(c1)N(C(=O)CCC(=O)NCc1ccccc1F)CC(C)O2 (centres undefined) .
Result: no

Request: Tell me the recorded outcome of this test for Cc1ccc(NC(=O)CCNC(=O)c2ccc([N+](=O)[O-])cc2)cc1S(=O)(=O)N1CCOCC1 .
Result: no

Request: Tell me the recorded outcome of this test for Cc1ccc(CCNC(=O)Cn2c(-c3cccs3)cc3cc(F)ccc32)cc1 .
Result: yes

Request: Tell me the recorded outcome of this test for COc1cc(NS(=O)(=O)c2ccc(NC(=S)NC(=O)c3ccc(Br)cc3)cc2)ncn1 .
Result: no

Request: Tell me the recorded outcome of this test for CC1CN(C(=O)CCC(=O)NCCCN2CCC(Cc3ccccc3)CC2)c2cc(Cl)ccc2O1 (centres undefined) .
Result: yes

Request: Tell me the recorded outcome of this test for Cc1ccc(NC(=O)CCCNC(=O)c2ccc(Cl)cc2)cc1S(=O)(=O)N1CCCCC1 .
Result: no

---

- Tested On: D(1A) dopamine receptor (Homo sapiens)
- Experiment Summary: Antagonist of Human D 1 Dopamine Receptor: qHTS; note: % is set by controls: 0 for no effect and ±100 for the full control effect
- Setup Conditions: HEK293 TREx D1 cells, calcium flux, dopamine EC80; at 10 µM; stronger effect = lower value
In all, about 360,000 compounds went through this assay and about 11,000 (3.1%) were called active. The entries come from a sample that favours actives as a whole.
Measured Parameter: activity change, negative = inhibition (%)
Output spec: scalar in %, unitless text.

COc1ccccc1C(C)NC(=O)Cc1ccsc1 (configuration not stated) | -36.8
Cc1ccc(S(=O)(=O)NCc2nc3ccccc3c(=O)n2N)cc1 | -32.4
O=S(=O)(c1ccc(Br)cc1)c1nnn2c1nc(NC1CCCCCC1)c1sccc12 | 4.84
COc1ccccc1CN(C)C(=O)c1cc2ccccc2o1 | -35.2
O=C(O)c1ccc2c(c1)N(Cc1ccc(F)cc1)C(=O)c1ccccc1S2=O (configuration not stated) | -20.6

Request: Assign activity change, negative = inhibition to the following record: CCCCn1c(=N)c(S(=O)(=O)c2ccccc2)cc2c(=O)n3cccc(C)c3nc21
Result: 1.3

Request: Assign activity change, negative = inhibition to the following record: C#CCCCc1nc2ccccc2c(=O)n1N
Result: 3.38

Request: Assign activity change, negative = inhibition to the following record: CCc1nnc(NC(=O)c2ccc(S(=O)(=O)NC3CCCCC3)cc2)s1
Result: 1.91

Request: Assign activity change, negative = inhibition to the following record: CCOCCCNC(=O)c1c(NC(=O)c2nc(SC)ncc2Cl)sc2c1CCCC2
Result: -26.2

Request: Assign activity change, negative = inhibition to the following record: O=S(=O)(c1ccc(Cl)cc1)c1nnn2c1nc(NC1CCCC1)c1sccc12
Result: -19.7

Request: Assign activity change, negative = inhibition to the following record: Cc1nnc(SC(C)C(=O)Nc2ccc(S(=O)(=O)NC3CCCCC3)cc2)s1 (configuration not stated)
Result: -34.5

---

- Tested On: D(1A) dopamine receptor (Homo sapiens)
- Experiment Summary: Antagonist of Human D 1 Dopamine Receptor: qHTS; note: % is set by controls: 0 for no effect and ±100 for the full control effect
- Setup Conditions: HEK293 TREx D1 cells, calcium flux, dopamine EC80; at 10 µM; stronger effect = lower value
About 11,000 (3.1%) of roughly 360,000 compounds were called active. The full list was thinned out, with actives kept by preference.
Measured Parameter: activity change, negative = inhibition

Solved entries (count: 3):
COc1cccc(COC(=O)C2CCN(S(=O)(=O)c3cccs3)CC2)c1OC | -15.5% (inactive)
CCCCOc1ccc(Cn2c(=O)oc3ccc(C)cc32)cc1OC | -3.29% (inactive)
Cc1ccc(NC(=O)NC(=O)c2ccccc2)cc1F | -1.14% (inactive)

Request: Assign activity change, negative = inhibition to the following record: Cc1ccc(NC2=C(c3ccc(C(F)(F)F)cc3)C(=O)c3ccccc32)cc1F
Result: -32.9% (active)

Request: Assign activity change, negative = inhibition to the following record: CCCCOc1ccc(CN2C(=O)C(=O)c3cc(Br)cc(C)c32)cc1OC
Result: -30.4% (active)

Request: Assign activity change, negative = inhibition to the following record: CCCN(CCC)C(=O)C1CCCN(c2ncnc3c2nc2n3CCCCC2)C1 (stereo not given)
Result: 11.5% (inactive)

---

- Tested On: D(1A) dopamine receptor (Homo sapiens)
- Experiment Summary: Antagonist of Human D 1 Dopamine Receptor: qHTS; note: % is set by controls: 0 for no effect and ±100 for the full control effect
- Setup Conditions: HEK293 TREx D1 cells, calcium flux, dopamine EC80; at 10 µM; stronger effect = lower value
- Description: Dopamine receptors (DARs) are involved in the etiology and/or therapy of a number of neuropsychiatric and endocrine disorders. […] Freshly passaged cells are plated in 1536 well black, clear bottom plates at a density of 4000 cells/well in 3 ul of complete media containing 1x tetracycline inducer. […] Agonist read: A 10 cycle (1 second/cycle) baseline measurement is taken and then the FDSS online 1536 pintool delivers 23 nl of compound library (as well as dopamine controls) to the plate. […]
The campaign covered roughly 360,000 compounds. About 11,000 (3.1%) were called active. Many of the other results were omitted from the sample, so actives are more common in it than they were.
Below, each of the molecules is paired with its reported activity change, negative = inhibition value.
Output spec: scalar in %, unitless text.

Solved entries (count: 8):
CC1=C(C(=O)OCC(C)C)C(c2ccc(OCc3ccccc3)cc2)N2C(=O)CCSC2=N1 (stereo unspecified) | 4.42
O=C(c1cc(-c2ccc(O)cc2)on1)N1CCOCC1 | -2.21
Clc1cc(-c2ccc(/C=N/n3cnnc3)o2)ccc1Br | -8.28
Cc1ccc(N(CC(=O)NCC(C)c2ccccc2)S(=O)(=O)N(C)C)cc1 (stereo unspecified) | -3.48
Cc1c(C)n(Cc2ccc(Cl)cc2)c2ccc(C(=O)NCCc3ccc(S(N)(=O)=O)cc3)cc12 | -36.4
Cc1c(C(=O)NC(C)C2CC3CCC2C3)cccc1[N+](=O)[O-] (stereo unspecified) | 18.8
CCc1ccc(C2C(C(=O)Nc3ccccc3)=C(C)Nc3c(C(=O)Nc4ccc(C)cc4)cnn32)cc1 (stereo unspecified) | -24.1
CSc1ccc(NC(=O)Cn2nnnc2-c2ccccc2F)cc1 | -8.36

Request: Assign activity change, negative = inhibition to the following record: O=C(NCCc1ccc(Cl)cc1)c1cccc(N2CCCC2=O)c1
Result: -8.26

Request: Assign activity change, negative = inhibition to the following record: Cc1ccc(C)c(N2CCN(CCCNC(=O)Nc3ccc(Cl)cc3)CC2)c1
Result: -58.4

Request: Assign activity change, negative = inhibition to the following record: COc1ccc(OC)c(NC(=O)CN2CCCN(Cc3cc(C)ccc3C)S2(=O)=O)c1
Result: 2.17

Request: Assign activity change, negative = inhibition to the following record: CC(C)c1ccc(NC(=O)Cn2ncc3ccccc32)cc1
Result: -8.47

Request: Assign activity change, negative = inhibition to the following record: COc1cc(NC(=O)CN2CCN(S(=O)(=O)c3ccc(Br)cc3)CC2)cc(OC)c1
Result: -5.38
